Target: Interleukin-1 receptor-associated kinase 4 (Homo sapiens, UniProt Q9NWZ3); note: in the data inactive means no Kd found up to 30 µM
Sequence (Q9NWZ3 whole entry): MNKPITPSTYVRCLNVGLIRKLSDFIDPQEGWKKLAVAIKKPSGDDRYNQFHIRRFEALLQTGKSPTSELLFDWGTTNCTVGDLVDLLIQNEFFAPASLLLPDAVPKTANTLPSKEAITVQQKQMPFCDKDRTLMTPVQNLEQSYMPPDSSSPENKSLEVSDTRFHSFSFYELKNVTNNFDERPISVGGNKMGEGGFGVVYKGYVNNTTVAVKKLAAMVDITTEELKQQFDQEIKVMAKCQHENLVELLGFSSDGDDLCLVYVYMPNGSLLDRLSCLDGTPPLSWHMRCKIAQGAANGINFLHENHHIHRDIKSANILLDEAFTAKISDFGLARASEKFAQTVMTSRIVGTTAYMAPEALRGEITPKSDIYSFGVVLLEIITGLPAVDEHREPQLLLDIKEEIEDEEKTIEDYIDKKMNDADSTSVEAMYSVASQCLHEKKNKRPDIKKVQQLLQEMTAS
The source made the active and inactive calls.
As shown below, each of these compounds has a reported Kd value.

Reference set, count: 3
compound	Kd
Cc1cc(C(=O)NOCCO)c(Nc2ccc(I)cc2F)n(C)c1=O [AZD-8330]	> 30 µM (inactive)
CN1C/C=C/CCOc2cccc(c2)-c2ccnc(n2)Nc2cccc(c2)C1 [ZOTIRACICLIB]	> 30 µM (inactive)
Cn1cc(-c2cnn3c(N)c(Br)c([C@@H]4CCCNC4)nc23)cn1 [SCH-900776]	4.01 µM

The record that follows has no Kd shown yet.
Lab request: please report Kd under test system Interleukin-1 receptor-associated kinase 4 (Homo sapiens, UniProt Q9NWZ3) for COc1cc([C@@H]2c3cc4c(cc3[C@H](O)[C@H]3COC(=O)[C@@H]23)OCO4)cc(OC)c1OC [AXL-1717] > 30 µM (inactive)
